Assay: Example 6: multiple-dose study in iron-overloaded human subjects (PK)
Format: in vivo
Settings: both sexes, human, plasma, oral; across 5 cohorts; read-out: mean t1/2, range
Recorded Metric: half-life

{"Smi": "COCCOCCOCCOc1cccc(C2=N[C@@](C)(C(=O)O)CS2)c1O", "Recorded Metric": "half-life", "Value Reported": "12.9 to 21.3 h"}

---

Assay: Example 9: single-dose study in healthy human subjects 30-75 mg/kg and 20 mg/kg x 2 (PK)
Assay type: in vivo
Details: human, plasma; single oral dose 40 mg/kg
Recorded Metric: Cmax

{"Smi": "COCCOCCOCCOc1cccc(C2=N[C@@](C)(C(=O)O)CS2)c1O", "Value Reported": "87.9 µg/mL"}

---

Experiment: Example 6: multiple-dose study in iron-overloaded human subjects (PK)
Assay type: in vivo
Details: both sexes, human, plasma; 40 mg/kg/day, 7 days oral; N = 4; read-out: T1/2 (converted)
Description: Example 6 was a multiple-dose, escalating study in iron-overloaded subjects conducted at 5 centers in the US, Australia, and Thailand. Men and women at least 18 years of age qualified to participate if they were able to voluntarily give consent and had transfusional overload requiring treatment with an iron chelator and were willing to discontinue their chelation for a period of at least 5 days prior to screening and during the study for a total of up to 35 days. […]

{"Smi": "COCCOCCOCCOc1cccc(C2=N[C@@](C)(C(=O)O)CS2)c1O", "half-life / h": 12.9}

---

Assay: Example 7: high single doses in healthy human subjects (PK)
Format: in vivo
Details: both sexes, human, plasma; single oral dose 50 mg/kg, fasted

{"Smi": "COCCOCCOCCOc1cccc(C2=N[C@@](C)(C(=O)O)CS2)c1O", "Tmax / h": 1.5}

---

Assay: Example 9: single-dose study in healthy human subjects 30-75 mg/kg and 20 mg/kg x 2 (PK)
Assay type: in vivo
Details: human, plasma; single oral dose 75 mg/kg; read-out: t1/2 (converted)

{"Smi": "COCCOCCOCCOc1cccc(C2=N[C@@](C)(C(=O)O)CS2)c1O", "half-life [h]": 8.36}

---

Experiment: Example 4: seven-day dosing in iron-overloaded human subjects (PK, tolerability)
Format: in vivo
Details: human, plasma and urine; 32 mg/kg daily 7 days oral
Recorded Metric: CL renal (mL/min)

{"Molecule": "COCCOCCOCCOc1cccc(C2=N[C@@](C)(C(=O)O)CS2)c1O [Compound 1]", "Recorded Metric": "CL renal", "Unit Annotation": "mL/min", "Value Reported": 73.6}

---

Test: Example 9: single-dose study in healthy human subjects 30-75 mg/kg and 20 mg/kg x 2 (PK)
Assay type: in vivo
Details: human, plasma; single oral dose 75 mg/kg

{"Compound": "COCCOCCOCCOc1cccc(C2=N[C@@](C)(C(=O)O)CS2)c1O [Compound 1]", "Unit Annotation": "µg/mL", "Cmax": 84.6}

---

Assay: Example 9: single-dose study in healthy human subjects 30-75 mg/kg and 20 mg/kg x 2 (PK)
Assay type: in vivo
Conditions: human, plasma; single oral dose 50 mg/kg

{"Smi": "COCCOCCOCCOc1cccc(C2=N[C@@](C)(C(=O)O)CS2)c1O", "AUC(0-t), µg·h/mL": 254}

---

Assay: Example 8: single-dose study in healthy human subjects 3-16 mg/kg (PK)
Type: in vivo
Conditions: male, human, plasma; single oral dose 16 mg/kg; mean of 3 subjects
Recorded Metric: Cmax (ng/mL)

{"Smi": "COCCOCCOCCOc1cccc(C2=N[C@@](C)(C(=O)O)CS2)c1O", "Value Reported": 34800}

Hello, the source for this data is patent US8993606B2, in case you need it.
